- System: SK-MEL-5
- protocolDescription: Anticancer activity against human SK-MEL-5 cells after 48 hrs by SRB assay
- Type: functional
- experimentalConditions: SK-MEL-5, 48 h
reportedProperty: TGI (µM)
I only need the number, in µM, no unit after it.

Provide one value: measured TGI of "O=C(NCCNc1nccc(-c2c(-c3cccc(O)c3)nc3sccn23)n1)Nc1cccc(C(F)(F)F)c1"
8.43

Specify reported TGI for the compound shown: "O=C(NCCNc1nccc(-c2c(-c3cccc(O)c3)nc3sccn23)n1)c1ccccc1"
17.5

Return the recorded TGI value; entry: "O=C(NCCNc1nccc(-c2c(-c3cccc(O)c3)nc3sccn23)n1)c1ccccc1O"
53.3

Give a short answer stating reported TGI for "COc1cccc(-c2nc3sccn3c2-c2ccnc(NCCNC(=O)Nc3cccc(C(F)(F)F)c3)n2)c1" .
15.9

----------
- System: HL-60(TB)
- protocolDescription: Anticancer activity against human HL-60(TB) cells after 48 hrs by SRB assay
- Format: functional
- experimentalConditions: HL-60, 48 h
reportedProperty: GI50 (µM)
Express your answer in µM, writing the number without its unit.

Provide GI50, system HL-60(TB), entry "O=C(NCCNc1nccc(-c2c(-c3cccc(O)c3)nc3sccn23)n1)Nc1cccc(C(F)(F)F)c1"
2.85

# assay system HL-60(TB): give GI50 of "COc1cccc(-c2nc3sccn3c2-c2ccnc(NCCNC(=O)Nc3cccc(C(F)(F)F)c3)n2)c1"
2.92

Report GI50 from HL-60(TB) testing of "O=C(NCCNc1nccc(-c2c(-c3cccc(O)c3)nc3sccn23)n1)c1ccccc1"
10.2

Report value: GI50, system: HL-60(TB), compound: "O=C(NCCNc1nccc(-c2c(-c3cccc(O)c3)nc3sccn23)n1)c1ccccc1O"
4.95

----------
- System: SNB-75
- protocolDescription: Anticancer activity against human SNB75 cells assessed as cell growth at 10^-5 M after 48 hrs by SRB assay
- Format: functional
- experimentalConditions: SNB-75, 48 h, read-out: Activity
For each entry below, report its growth at 10 µM value.
Please give a number only; it is taken to be in %.

Return growth at 10 µM (reported value) for this compound: "COc1cccc(-c2nc3sccn3c2-c2ccnc(NCCNC(=O)c3ccc(N4CCOCC4)c(C(F)(F)F)c3)n2)c1"
82.5

Give the value of growth at 10 µM reported for the following: "O=C(NCCNc1nccc(-c2c(-c3cccc(O)c3)nc3sccn23)n1)Nc1ccccc1"
71.6

Supply measured growth at 10 µM of "COc1cccc(-c2nc3sccn3c2-c2ccnc(NCCNC(=O)c3cccc(C(F)(F)F)c3)n2)c1" in your reply.
85.3

Read the entry "COc1cccc(-c2nc3sccn3c2-c2ccnc(NCCNC(=O)c3ccccc3)n2)c1" and write its reported growth at 10 µM.
92.6

For "O=C(NCCNc1nccc(-c2c(-c3cccc(O)c3)nc3sccn23)n1)c1cccc(C(F)(F)F)c1" , write its growth at 10 µM.
73.8

Output measured growth at 10 µM for this item: "O=C(NCCNc1nccc(-c2c(-c3cccc(O)c3)nc3sccn23)n1)Nc1cccc(C(F)(F)F)c1"
66.2

Quickly give me recorded growth at 10 µM for "COc1cccc(-c2nc3sccn3c2-c2ccnc(NCCNC(=O)Nc3cccc(C(F)(F)F)c3)n2)c1"
71.8

Determine from records and report growth at 10 µM for "O=C(NCCNc1nccc(-c2c(-c3cccc(O)c3)nc3sccn23)n1)c1cc(N2CCOCC2)cc(C(F)(F)F)c1"
83.2

Respond only with growth at 10 µM recorded for "COc1cccc(-c2nc3sccn3c2-c2ccnc(NCCNC(=O)c3ccccc3O)n2)c1"
103
